Experimental Target: human WDR5 seven tandem WD-40 domain (residues 24–334) (human, UniProt P61964 24-334)
Assay Details: ITC; peptide (approximately 1 mM) titrated into protein (0.05 mM), 20°C, Buffer E (20 mM Tris-HCl, 200 mM NaCl, pH 7.5), single binding site model, duplicate
Condition Details: both partners purified
Parameter Measured: pKd
Would you please state pKd, meaning minus log10 of the concentration in mol/L, as a bare number?

Exercise: // returns reported pKd for input GSARARPAQ [Kif2A S121A peptide]
Solution: 5.67
